Experiment: folding stability dG unfold from trypsin proteolysis; higher = more stable
Rule: label 1 for folding stability dG unfold not less than 1 kcal/mol, label 0 for anything less.

stdin: Does the sequence SAGGGPDEVSEVKVSSTTTDPATGKTYTVDTTTVTTPGTVTTNTTYTVHDPVTGAVTTETTTTTTPPGSAGG [r13_206_JUSTAS] have recorded folding stability dG unfold that is 1 kcal/mol or more?
stdout: label 0

stdin: Kindly determine if folding stability dG unfold recorded for SAGGSAGGSASMKEVTILVKKKLPGGEEEESVTTVTLNPNEIDKVKEEFKKKGWEVVKVVSSAGGSAGGSAG [r3_453_JUSTAS] is above or exactly 1 kcal/mol.
stdout: label 1

stdin: Item SAGGSAKITPGEEINFMFYNPENGQPFMVRIRIEKITVKRKPKDGKRKVEYKIKIEMSPGMKEITISAGGSA [r15_248_TrROS] with folding stability dG unfold of 1 kcal/mol or above?
stdout: label 1

stdin: For this sequence, is measured folding stability dG unfold 1 kcal/mol or higher? SAGGSAGGKLPKNIEKIEFNKKTNIIKVKVKSLEDLKKLAEKLNFEIVSVEEKDGYIYIKIKKKSAGGSAGG [r6_380_TrROS_Hall]
stdout: label 1

stdin: Check if folding stability dG unfold >= 1 kcal/mol (inclusive). Item: SAGGMIEKIKEAAKKLGLKVKIEEVKFDKKTKKVTIKITLENGKKIEITVEMSEEELLNAIKELIKKSAGGS [r16_153_TrROS_Hall]
stdout: label 1

stdin: Entry SAGGEGEPFRITPDEIQRIFNELAQDHGFNVSISEIQVPGDEVRITISIQHDGGTQSVRLPFRIEKDDSAGG [r13_652_TrROS] : is its folding stability dG unfold no less than 1 kcal/mol?
stdout: label 0

stdin: Is it the case that SAGGSAGGSMIEYPELTLEELKAKFEAEGYTVEEEPPTNVVTLTPPDGTPITVTVTPVPESLLSAGGSAGGS [r12_211_JUSTAS] has folding stability dG unfold reaching or exceeding 1 kcal/mol?
stdout: label 1

* * *

Assay: folding stability dG unfold from trypsin proteolysis; higher = more stable
Recorded folding stability dG unfold values for a group of sequences are listed next.
Express it in kcal/mol; write the number only.

Check out these entries, answers already filled in.
>>> df
                              item_sequence  endpoint_value
0  SAGGSMVSEEEIKEIVEKTAAELPEDAVEPVTVTIELPNPDGTTTVLTITITRSPTSISYTVSSSPAASAGG [r19_220_JUSTAS]            3.56
1  SAGGMIEVFVEGLTLEETLRRLAEEYPDVPEVVVFFPDGTAVFFRRDGDEVEVVEVVPVGPVAPDELSAGGS [r8_225_TrMRF]            2.59
2  SAGGSAGGSADGWVFLVGADVEVEPVPASLLNVPRSVPGEENPYVVKLKEVSFLLVPAKELSAGGSAGGSAG [r3_488_TrMRF]          -0.906
3  SGNGEVEVEINIRIVIEPWDPNGEPDPVPIAEIPIKAEYDANDPEAVDFAVLDILDLLAPENPGYRIHIESA [r9_1112_TrROS]            1.11
4  SAGGSAGGSAGGAEITIEEKDGKLTLTVRLPDGYVATATFDPNGKWTIKEIKVYKLPEGLSAGGSAGGSAGG [r7_826_TrROS_Hall]            2.35
5  SAMVYEFPFETEEEAREKAREVLLEKLGASPEEEKVELDIEIEIREDPETGKKLATVTVPKVTVSPKKSSAG [r14_467_JUSTAS]          0.0292
6  SAGGSAGGSAGGSKKVIEVPAKDLTPEQLKKLAKEGETIEITFPNGEKKEIPAEKLKPKSAGGSAGGSAGGS [r4_382_TrROS_Hall]           0.115
7  SAGGSAGGSAGGGSMSITVPMSPEEGKKLAEEIKEKLKSEGNPVEVTVTIVSPTDPSLLSSAGGSAGGSAGG [r7_776_JUSTAS]           0.627
8  SAMKVYIAASSPEEIEGWIEEARKAGIDGPELIFVSPDDRVYKAEIIPNTGEVKIEPVKPIEELLKELPSAG [r14_913_TrMRF]            1.09
9  SPIVKVRLRIELPDGKVLELELDVPLPLIKEALSKLIGEKYKVKIVKIDPIDPEKLKPGSTIEITLKAEPSA [r9_803_TrMRF]            3.72

stdin: Value lookup for folding stability dG unfold; key = SAPLEQLLEFAEEFAQAYGYRVEIEVYRNGEPKGTYEIPMPKPGQPPVSIMIRIPDPNLYIHVTIYMPRSAG [r14_728_TrROS]
stdout: 2.16

stdin: Reported folding stability dG unfold, sequence SAGGSAGGSAGKKKGKKPKKIKVKKIKLIVKDKETNEYYEKEITVNKDGTLTIKVKKLKKSAGGSAGGSAGG [r11_883_TrROS_Hall] : ____
stdout: 1.85

stdin: Which measured folding stability dG unfold value corresponds to SAGSWIDKLPPSFTSSSPLAKRPDGTRVYAYEYTTESSPSILLVEFDASGRLRKIEKLDPETAAKAIAASAG [r5_73_JUSTAS] ?
stdout: 1.19

stdin: Fill blank: measured folding stability dG unfold of the sequence SAGMKKVEIVEEVKDPETNEPVILVRDKDTGELVKFHPNGKVTIYDLNDPNKAKVFEAKISDVLEELANSAG [r5_491_TrMRF] is ____.
stdout: 0.622

Source listed as the supplement of paper PMC12764529.
